- Tested on: MS2 coat protein
- Experiment description: apparent KD of MS2 coat protein; designed switch direction (-1 OFF switch, 1 ON switch): 1; higher = weaker reporter binding
- Measurement context: input ligand: none

{"columns": ["Residue sequence", "Measured target", "apparent KD of MS2 coat protein / nM"],
 "data": [
  ["GGUAGGUUACUACCAAUCACAUGAGGAUCACCCAUGUUUUGGGAGGAUAUGGUACCUAUUUGGUACCAGAAGGCCUUAUUAAUU [Fiskers NG3ss - 12] (Eterna round: R96, puzzle: Same State NG 3)", "MS2 coat protein", 65.3],
  ["AACAUGUGGUGUCACAUGAGGAUCACCCAUGUGGUAAAAGCUGAGGAUAUAAAGAGAAACAUGAAUUAGAAGGUAGGAUCACAA [AK SSNG3-V2-19] (Eterna round: R96, puzzle: Same State NG 3)", "MS2 coat protein", 127],
  ["AUAAAACAUGAGGAUCACCCAUGUCAACAAAGUCGAGGAUAUGGGCAAAUAAAAUAAGAACCAGAAGGCGAAUAAU [Teenbexe] (Eterna round: R96, puzzle: Same State 1)", "MS2 coat protein", 273],
  ["UUGCGGGCUUGAGGAUAUUGAGUACAUAUGUUUAACAUGAGGAUCACCCAUGUGGGUUGCGGUAUCGAGAAGGUAACUUCCUCC [salish99_SSNG2_r04_809] (Eterna round: R96, puzzle: Same State NG 2)", "MS2 coat protein", 163],
  ["UUACUCAUGUAAGGAUAUGCAGCCGAAACGGCUGCAGAAGGUACUAUAAUACAUGAGGAUCACCCAUGUCAAAAUAAUUAAAAC [Mat - Same State NG 1 - JL mod - D72] (Eterna round: R96, puzzle: Same State NG 1)", "MS2 coat protein", 26.9]
]}

====

- System: MS2 coat protein
- Experiment description: apparent KD of MS2 coat protein, switch OFF state (with FMN for OFF switches, without FMN for ON switches); designed switch direction (-1 OFF switch, 1 ON switch): -1; higher = weaker reporter binding
- Measurement context: FMN input: 0 or 200 uM; Eterna round: R93 (includes R88 designs)

{"columns": ["Residue sequence", "Unit label", "apparent KD of MS2 coat protein"],
 "data": [
  ["CAACAGUCAGGAUAUGCAAAAAAAACGCAACGCAAAAAAAAGCAGAAGGGACAUGAGGAUCACCCAUGUUGUCG [Exclusion4-03]", "nM", 22.9],
  ["AAGAAUGCAGGAUAUACAUGAGGAUCACCCAUGUAAAAGAAAGAAAGGGAAAAGAAAAGUAGAAGGGCAAAGAA [Usermaatre-setepenamun Osorkon II]", "nM", 36.5],
  ["AAGAAGUCAGGAUAUGCUGCUCGUCACAAAAGUGAUGAGUAGCAGAAGGGACAUGAGGAUCACCCAUGUAAAAA [Opal 33]", "nM", 42],
  ["AAAAUGUCAGGAUAUGUAGCAAAAGGUGAUCAAAAAAAGCUACAGAAGGGACAUGAGGAUCACCCAUGUAAAAA [Ex4: 935]", "nM", 2870],
  ["CUCAUGUCAGGAUAUAGCCACAUGAGGAUCACCCAUGUGGACUAGAAGGGACAUGAGGAUCACCCAUGUAUGAA", "nM", 11.3],
  ["AGUCGGCGAGGAUAUACAUGAGGAUCACCCAUGUGAGAGAAUAAAGUGAGUUAGACAAGUAGAAGGCGCUGACA [JL Lego Mod 10]", "nM", 226],
  ["GAAGAACAUGAGGAUCACCCAUGUCAGGAUAUACAGAAGGGAAUAAUAUAAUCUGGAAGUAGAAGGGACAAGAA [Ex 1 May 45]", "nM", 51.4]
]}

====

- Test system: MS2 coat protein
- Experiment description: apparent KD of MS2 coat protein; designed switch direction (-1 OFF switch, 1 ON switch): -1; higher = weaker reporter binding
- Measurement context: input ligand: FMN 200 uM

{"columns": ["Residue sequence", "apparent KD of MS2 coat protein (nM)"],
 "data": [
  ["AAACAGCAAGGAUAUACGGGCUGUGCUUUUCAUUUCAUACAACAUGAGGAUCACCCAUGUAGAAGGUGCAACAA [Ex2 #4] (Eterna round: R97, puzzle: Exclusion 2)", 125],
  ["GUAGAGUCAGGAUAUACGCGAUCGAAAGAUCGGUGGUCCUUACAUGAGGAUCACCCAUGUAGAAGGGACUCUAC [Omei mod 13 to Eli's favorate candidate (ch.parushev)] (Eterna round: R97, puzzle: Exclusion 2)", 65.9],
  ["AUCAAGGGAGGAUAUACAGUGAACAGUACUAGUCAGGCGGCACAUGAGGAUCACCCAUGUAGAAGGCCCAUGAU [Eternabot (L1) Solution 70] (Eterna round: R97, puzzle: Exclusion 2)", 80],
  ["GCGCGCGCAGGAUAUACAUGAGGAUCACCCAUGUAGGGCCCGGGUAUUCCCGGGCCCUGUAGAAGGGUGUGUGU [-40.4, -37.1 kcal, A 19%, 0-6] (Eterna round: R97, puzzle: Exclusion 3)", 21.8],
  ["ACAAGCUUAAUCAGUAUGAACAUGAGGAUCACCCAUGUAAAAGGGAAUACUAUUGGGUUUUUUAUAGCUCGUCUUAU [JR_STOV1_Sub018] (Eterna round: R97, puzzle: Sensor, turn-off variant 1)", 17.8],
  ["CGGCAAUCCUAGGAUAUGCUAGACGAGAGUCUAGCAGAAGGAGGAACAUGAGGAUCACCCAUGUGUCCUAGCCG [Mat - Exclusion 6 - Eli Mod - D15] (Eterna round: R97, puzzle: Exclusion 6)", 22.1],
  ["AAUUAGUGAGGAUAUUCGAGCAGUGGCAGUAGCCAGUGCAUGAAGAAGGCACAUGAGGAUCACCCAUGUUAUAA [EX4 #60] (Eterna round: R97, puzzle: Exclusion 4)", 53.4],
  ["CGUGUGUCAGGAUAUACGUUGGGCCAGCAUGGCUAAAGACAGUAGAAGGGACAUGAGGAUCACCCAUGUGGAGU [Eternabot (L2) Solution 4] (Eterna round: R97, puzzle: Exclusion 4)", 571],
  ["UGAGCAUGAGGAUAUACAAGGCGACCGUGAGGUCGAGGUUUACAUGAGGAUCACCCAUGUAGAAGGCAUGUUCU [jl-ex2-4.07] (Eterna round: R97, puzzle: Exclusion 2)", 40.2]
]}

====

- System: MS2 coat protein
- Experiment description: apparent KD of MS2 coat protein; higher = weaker reporter binding
- Measurement context: Eterna round: R107; input ligand: arginine 13.2 mM
Measured parameter: apparent KD of MS2 coat protein (nM)

{"columns": ["Residue sequence", "Quantitative result"],
 "data": [
  ["CGACACCAGGCAAUCCAUCACCCGGCUGAUACCAGCUCUUUUGGAAGCCCUUGGCAGCAGAGAACAUGAGGAUCACCCAUGUCAG [theeternabot_exclusion_MS2_Theo_A_18]", 14.5],
  ["AUAACCCUUGACUAAAACACUAAAUCAGUUCGAGGACCGGUACGGCCGCCACUCGUGUCAAGACAUGAGGAUCACCCAUGUACCU [Isbe]", 32],
  ["GGUACAUGAGGAUCACCCAUGUAUUAGUGCCGAGGACCGGUACGGCCGCCACUCGCUUCACAUGAGGAUCACCCAUGUGUCACUG [SSTA DOUBLE!!! :-D #14]", 23.6]
]}

====

- Test system: K4 kissing-loop RNA reporter;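 also: bound reporter read as fluorescence of individual clusters on recovered sequencing chips by microscopy, with normalized cluster intensities fitted with a binding model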
- Experiment description: apparent KD of K4 kissing-loop reporter; higher = weaker reporter binding
- Measurement context: Eterna round: R107; input ligand: FMN 200 uM
Recorded measurements of apparent KD of K4 kissing-loop reporter, one per entry

{"columns": ["Residue sequence", "Measured target", "apparent KD of K4 kissing-loop reporter / nM"],
 "data": [
  ["GUUUGCCGGUCCCGGAGUGAUGUUCCGGAUACCAGCAACUUCCUUUGCCCUUGGCAGCCGUAGCUAUACCGGGUGGCAGCUUCAG [Anresoenus]", "K4 kissing-loop RNA reporter", 111],
  ["GUUUGCCGGUUCCGGAGUGAUGUUCCGGAUACCAGCAACUUCCUUUGCCCUUGGCAGCCGUAGCUAUACCGGAUGGCAGCUUCAG [Arrexean]", "K4 kissing-loop RNA reporter", 96.1],
  ["AAGCAUUCUUCGGAAUGCAGACCCGCUGAGGAGGAUAUGACGAAAGUCAGAAGGUUUCAGUGAUGUUGAGGCCUCCUCAAUGGUC [whbob_Ex_FMNA__2th182]", "K4 kissing-loop RNA reporter", 305],
  ["GAGGCCAGACUGAGUGAUGUUUAGUAUGAUACCAGUAUCGAAGGAUACCCUUGGCAGCAUGCCACGGCCUCGGCGGGAAACCGCC", "K4 kissing-loop RNA reporter", 746],
  ["UUCGAAAGUCGAAGGAGCGCUGUCGGUCAUAGACCAUAUCUGUAGUGAUGUUACAGAUGACAGCAGGUAGGUCGCGACAGAGACA [Arg B SS t18]", "K4 kissing-loop RNA reporter", 148],
  ["CAUACGCAUGGAGGAUAUGAGAUUUCUCAUGUCAUUUAAUAUUCUCAGUGAUGUUGAGAUUUUGGCUCAGAAGGCCAUGUGUAUG [Ex FMN B 19]", "K4 kissing-loop RNA reporter", 176]
]}
